test system: TNF-α production; test: TNF-α production of LPS-stimulated RAW264.7 cells (ELISA); format: cell-based; settings: Mus musculus, LPS (10 μg/ml) for 4 hours
pIC50: −log10 of the molar value.
Property Measured: pIC50

These solved cases illustrate the format of a correct answer.
>>> endpoint_value("COC1=C(OC)C(=O)C(Cc2ccc(CCC(=O)N3CC(C)CC(C)C3)cc2)=C(C)C1=O (centres unmarked)")
4.70
>>> endpoint_value("COC1=C(OC)C(=O)C(Cc2ccc(CCC(=O)N3CCC[C@H]3C(N)=O)cc2)=C(C)C1=O")
4.60
>>> endpoint_value("COC1=C(OC)C(=O)C(Cc2ccc(CCC(=O)NC(C)C)cc2)=C(C)C1=O")
4.80
>>> endpoint_value("COC1=C(OC)C(=O)C(Cc2ccc(CCC(=O)N3CCC(C)CC3)cc2)=C(C)C1=O")
4.89

[A] COC1=C(OC)C(=O)C(Cc2ccc(CCC(=O)N3CCC(C(C)=O)(c4ccccc4)CC3)cc2)=C(C)C1=O
[B] COC1=C(OC)C(=O)C(Cc2ccc(CCC(=O)Nc3ccc(OC)c(OC)c3)cc2)=C(C)C1=O
Challenge: Hi team, can someone confirm which has the larger pIC50: A or B ? Thanks. State the label of the item chosen.
Response given: A

----------
system: TNF-α production; experiment: TNF-α production of LPS-stimulated RAW264.7 cells (ELISA); format: cell-based; settings: Mus musculus, LPS (10 μg/ml) for 4 hours
pIC50: −log10 of the molar value.
Property Measured: pIC50

Look over these answered cases.
>>> endpoint_value("COC1=C(OC)C(=O)C(Cc2ccc(CCC(=O)N3CCSCC3)cc2)=C(C)C1=O")
4.68
>>> endpoint_value("COC1=C(OC)C(=O)C(Cc2ccc(CCC(=O)Nc3ccc(OC)cc3)cc2)=C(C)C1=O")
4.96
>>> endpoint_value("COC1=C(OC)C(=O)C(Cc2ccc(CC(=O)N3CCOCC3)cc2)=C(C)C1=O")
4.72

[P] COC1=C(OC)C(=O)C(Cc2ccc(CCC(=O)N3CCCCC3)cc2)=C(C)C1=O
[Q] COC1=C(OC)C(=O)C(Cc2ccc(CCC(=O)N3CCCCC3C)cc2)=C(C)C1=O (stereo not drawn)
Challenge: Compare pIC50: is it lower for P or for Q ? Answer with the label corresponding to your selection.
Response given: P
(P: 4.66, Q: 5.05)
